Examples of binders with documented Kd follow.
Target: T1, his-tagged murine TIGIT (Acro Biosystems #TIT-M52E6) (murine, UniProt P86176 29-148, limits assumed)
T1 construct: Bought protein; also called mouse his-tagged TIGIT; not shown: his tag
T1 sequence (looked up): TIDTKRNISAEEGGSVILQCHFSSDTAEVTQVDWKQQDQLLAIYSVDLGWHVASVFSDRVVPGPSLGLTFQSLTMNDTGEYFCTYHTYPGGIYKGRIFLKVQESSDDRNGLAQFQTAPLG
Assay: SPR (Carterra LSA), scFv-Fc captured, His-TIGIT analyte
Numeric only. Scale: nM

// known answers, use as guide
{"columns": ["BINDER", "DATA VALUE"],
 "data": [
  ["43586p1.2.C12 (scFv, V domains shown) VH: ESGGGLVQPGGSLRLSCAASGFTFSDYLMTWVRQAPGKGLEWVSTITWDGDRTYYADSVKGRFTISRDNSKNTLYLQMNSLRAEDTAVYYCAKHWTVFQYGMDVWGQGTTVTVSS VL: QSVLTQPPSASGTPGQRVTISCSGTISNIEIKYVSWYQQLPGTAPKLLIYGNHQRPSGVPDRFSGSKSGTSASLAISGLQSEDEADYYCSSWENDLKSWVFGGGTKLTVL", 68.2],
  ["43586p2.G02 (scFv, V domains shown) VH: EVQLLESGGGLVQPGGSLRLSCAASGFTFSSYWMNWVRQAPGKGLEWVSGIYSGGTTYYADSVKGRFTISRDNSKNTLYLQMNSLRAEDTAVYYCTRENWKENNAMDVWGQGTTVTVSS VL: QSVLTQPPSASGTPGQRVTISCSGVTSNIASYHVYWYQQLPGTAPKLLIYLNSQRPSGVPDRFSASKSGTSASLAISGLQSEDEADYYCATWDGSQNGWVFGGGTKLTVL", 1.57],
  ["43586p1.2.B8 (scFv, V domains shown) VH: EVQLLESGGGLVQPGGSLRLSCAASGFTFTSYLMSWVRQAPGKGLEWVSTITWDGDRTYYADSVKGRFTISRDNSKNTLYLQMNSLRVGDTAVYYCAKHWTVFQYGMDVWGQGTTVTVSS VL: QSVLTQPASASGTPGQRVTITCSGTISNIETKYVSWYQQLPGTAPKLLIYGNHQRPSGVPDRFSGSKSGTSASLAISGLQSEDEADYYCASWENDLKSWVFGGGTKLTVL", 501],
  ["43586p1.2.G10 (scFv, V domains shown) VH: EVQLLESGGGLVQPGGSLRLSCAASGFTFDDYVMSWVRQAPGKELEWVSLINWNGDKTCYADSVKGRFTISRDNSKNTLYLQMNSLRAEDTAIYYCAKHWIVFQYGMDVWGQGTTVTVSS VL: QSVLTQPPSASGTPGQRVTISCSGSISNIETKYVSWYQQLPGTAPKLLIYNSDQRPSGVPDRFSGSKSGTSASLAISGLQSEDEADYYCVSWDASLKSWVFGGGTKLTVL", 15.6]
]}

Now look at this one.
Look up Kd: 43586p2.G01 (scFv, V domains shown) VH: EVQLLESGGGLVQPGGSLRLSCAASGFTVSSNWMSWVRQAPGKGLEWVSTTSSSSWNNYTYYADSVKGRFTISRDNSKNTLYLQMNSLRAEDTAVYYCAKGSYGMDVWGQGTTVTVSS VL: QSVLTQPPSASGTPGQRVTISCSGSNSNIGAKYLYWYQQLPGTAPKLLIYLNDRRPSGVPDRFSGSKSGTSASLAISGLQSEDEADYYCAFWDDHLKGWVFGGGTKLTVL
1.65
